Test system: HBV viral production in AD38 cells
Test: Viral load production in AD38 cells by quantitative PCR of the HBV core sequence in supernatant
Type: cell-based
Details: Hepatitis B virus, 144 h; 10 μM compound, 6 days at 37° C., viral load in supernatant compared against DMSO control wells; read-out: AD38 Viral Load (CpAM/DMSO %) at 10 μM
activity at 10 µM class ranges: lo (below 7%), med (7% to below 20%), hi (20% or more)

Look over these answered cases.
- molecule: "O=C(NCCc1cncs1)c1ccc2c(c1)NC(=O)c1ccccc1S2"
  tested system: "HBV viral production in AD38 cells"
  class: "med"
- molecule: "CCN1c2ccc(C(=O)NCc3cnco3)cc2NC(=O)c2ccccc21"
  tested system: "HBV viral production in AD38 cells"
  class: "med"
- molecule: "O=C(NCc1cccnc1)c1ccc2c(c1)NC(=O)c1ccccc1N2Cc1ccccc1"
  tested system: "HBV viral production in AD38 cells"
  class: "hi"
- molecule: "CC(C)c1ncc(CNC(=O)c2ccc3c(c2)NC(=O)c2ccccc2S3)s1"
  tested system: "HBV viral production in AD38 cells"
  class: "lo"
- molecule: "O=C(NCc1cnco1)c1ccc2c(c1)NC(=O)c1ccccc1S2"
  tested system: "HBV viral production in AD38 cells"
  class: "med"

Request: Sort into band: O=C(NCCc1cncs1)c1ccc2c(c1)NC(=O)c1c(F)cccc1S2
Result: hi

Request: Band of O=C(Nc1ccc(Cl)cc1F)c1ccc2c(c1)NC(=O)c1cc(F)ccc1S2 ?
Result: hi

###

Tested on: AD38 cells
Experiment: Viability of AD38 cells (Promega CellTiter-Glo) at the end of compound treatment
Type: cell-based
Settings: 10 μM compound, 6 days, luminescence normalized against DMSO control wells (controls being 100%)
Method: Example 56: Assay Measuring Activity of Compounds on Viral Production in and on Viability of AD38 Cells AD38 cells were then re-suspended with 10 mL of Treatment Medium and counted. […] At the end of compound treatment period cell viability was assessed using a Promega CellTiter-Glo protocol. […]
measurement name: AD38 Viability Normalized Result (CPAM/DMSO %) at 10 μM
Respond numerically; units are % and should not be typed.

- compound: "O=C(Nc1cccc(-c2cncs2)c1)c1ccc2c(c1)NC(=O)c1cc(F)ccc1S2 [Compound 1441]"
  test value: 90
- compound: "O=C(NCc1cncs1)c1cc2c(cc1F)Sc1ccccc1C(=O)N2 [Compound 1429]"
  test value: 90

Summary for this compound, O=C1Nc2cc(S(=O)(=O)N3CCC(O)CC3)ccc2Sc2ccccc21 [Compound 1431] : AD38 Viability Normalized Result (CPAM/DMSO %) at 10 μM is 92

# compound Cc1nnc(CCNC(=O)c2ccc3c(c2)NC(=O)c2ccccc2S3)o1 [Compound 1603] ; its AD38 Viability Normalized Result (CPAM/DMSO %) at 10 μM = 91

Per the records, this compound ( O=C(NCCC1CCCCC1)c1ccc2c(c1)NC(=O)c1cnccc1S2 [Compound 1257] ) has AD38 Viability Normalized Result (CPAM/DMSO %) at 10 μM equal to 113

###

# activity at 10 µM values compiled below
Test system: HBV viral production in AD38 cells
Experiment: Viral load production in AD38 cells by quantitative PCR of the HBV core sequence in supernatant
Format: cell-based
Settings: Hepatitis B virus, 144 h; 10 μM compound, 6 days at 37° C., viral load in supernatant compared against DMSO control wells; read-out: AD38 Viral Load (CpAM/DMSO %) at 10 μM
Number in %, nothing else.

Sample answers from the record:
- compound: "O=C1Nc2cc(S(=O)(=O)Nc3ccc(Cl)cc3F)ccc2Sc2ccccc21 [Compound 1544]"
  scale unit: "%"
  test value: 40
- compound: "O=C(NCCc1ccc(-c2ccccc2)cc1)c1ccc2c(c1)NC(=O)c1c(F)cccc1S2 [Compound 1465]"
  scale unit: "%"
  test value: 39
- compound: "O=C1Nc2cc(CNCCc3ccccc3)ccc2Sc2ccccc21 [Compound 1357]"
  scale unit: "%"
  test value: 39

Measured activity at 10 µM, O=C(NCC1CCCCC1)c1ccc2c(c1)NC(=O)c1ccccc1S2 [Compound 1169] : 39

Source of measurements: patent US10183936B2
